# Test system: PC-12
# Test name: Selectivity index, ratio of Ki for sigma1 receptor in Sprague-Dawley rat cortical membranes to Ki for rat VAChT expressed in PC12 cell membranes
# Type: cell-based
Each item that follows carries a reported Ratio Ki.

Consider the worked cases shown below.
# Compound, Assay value
measured = [
    ("O[C@@H]1Cc2ccccc2C[C@H]1N1CCC(O)(c2ccccc2)CC1 (racemic)", 5.8),
    ("O[C@@H]1Cc2ccccc2C[C@H]1N1CCN(c2ccccc2)CC1 (racemic)", 8.3),
    ("O[C@@H]1Cc2ccccc2C[C@H]1N1CCC(c2ccncc2)CC1 (racemic)", 0.5),
    ("O[C@@H]1CC[C@@H](OCc2ccc(F)cc2)C[C@H]1N1CCc2ccccc2C1 (racemic)", "< 0.1"),
]

Fill blank: measured Ratio Ki of the compound O=C(c1ccc(F)cc1)C1CCN([C@@H]2Cc3ccccc3C[C@H]2O)CC1 (racemic) is ____.
8.8

* * *

Each item that follows carries a reported log10 Ki.
# Tgt: Sigma non-opioid intracellular receptor 1 (Rattus norvegicus)
# Sequence (Q9R0C9 whole entry): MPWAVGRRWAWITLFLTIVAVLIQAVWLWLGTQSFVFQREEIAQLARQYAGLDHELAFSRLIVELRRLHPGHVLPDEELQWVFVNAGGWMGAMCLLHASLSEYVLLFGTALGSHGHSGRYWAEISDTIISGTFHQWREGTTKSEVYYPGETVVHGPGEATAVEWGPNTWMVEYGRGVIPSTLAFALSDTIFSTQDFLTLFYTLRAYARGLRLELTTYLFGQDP
# Test name: Displacement of […] from sigma1 receptor in Sprague-Dawley rat cortical membranes incubated for 2 hrs by liquid scintillation counting based competitive radioligand binding assay
# Test parameters: read-out: Ki(app)
Field: value | Transform: log10 | Quantity: Ki | Unit: nM

# Compound, log10 Ki
data = [
    ("O=C(Nc1cccc2c1C[C@@H](N1CCC(c3ccccc3)CC1)[C@H](O)C2)c1ccc(F)cc1 (racemic)", 3.81),
    ("O=C(Nc1cccc2c1C[C@@H](O)[C@H](N1CCC(c3ccccc3)CC1)C2)c1ccc(F)cc1 (racemic)", 2.80),
]

Fill blank: measured log10 Ki of the compound O[C@@H]1C[C@@H](OCc2ccc(F)cc2)CC[C@H]1N1CCC(c2ccccc2)CC1 (racemic) is ____.
1.23

Same lookup for CC(=O)C1(c2ccccc2)CCN([C@@H]2CCCC[C@H]2O)CC1 (racemic) , please.
1.35

Same lookup for Nc1cccc2c1C[C@@H](N1CCC(c3ccccc3)CC1)[C@H](O)C2 (racemic) , please.
2.08

Same lookup for O[C@@H]1Cc2ccccc2C[C@H]1N1CCC(c2ccncc2)CC1 (racemic) , please.
0.95

Same lookup for CCN(CCCc1ccccc1)[C@@H]1CCCC[C@H]1O (racemic) , please.
2.06

Same lookup for CCN(CCCc1ccccc1)[C@@H]1CC[C@H](OCc2ccc(F)cc2)C[C@H]1O (racemic) , please.
1.29

Same lookup for O[C@@H]1Cc2ccccc2C[C@H]1N1CCN(c2ccccc2)CC1 (racemic) , please.
2.67

Same lookup for O[C@@H]1Cc2ccccc2C[C@H]1N1CCC(Cc2ccccc2)CC1 (racemic) , please.
1.81

Same lookup for O[C@@H]1C[C@@H](OCc2ccc(F)cc2)CC[C@H]1N1CCc2ccccc2C1 (racemic) , please.
1.36

Same lookup for O[C@@H]1C[C@@H](OCCCF)CC[C@H]1N1CCC(c2ccccc2)CC1 (racemic) , please.
1.99

Same lookup for O=C(c1ccc(F)cc1)C1CCN([C@@H]2CCCC[C@H]2O)CC1 (racemic) , please.
1.78

Same lookup for O[C@@H]1CCCC[C@H]1N1CCN(c2ccccc2)CC1 (racemic) , please.
1.92

Same lookup for O[C@@H]1Cc2ccccc2C[C@H]1N1CCC(O)(c2ccccc2)CC1 (racemic) , please.
1.83

Same lookup for O[C@@H]1Cc2ccccc2C[C@H]1N1CCC(c2ccccc2)CC1 (racemic) , please.
1.42

Same lookup for O[C@@H]1CCCC[C@H]1N1CC=C(c2ccccc2)CC1 (racemic) , please.
0.99

Same lookup for O[C@@H]1Cc2ccccc2C[C@H]1N1CC=C(c2ccccc2)CC1 (racemic) , please.
1.38

* * *

# Test name: Displacement of [3H]DTG from sigma2 receptor in Sprague-Dawley rat liver membranes incubated for 2 hrs in presence of dextrallorphan by liquid scintillation counting based competitive radioligand binding assay
# Test parameters: read-out: Ki(app)
Each item that follows carries a reported Ki.
// note: answer is a bare numeric in nM

Consider the worked cases shown below.
# Compound, Assay value
rows = [
    ("O[C@@H]1C[C@@H](OCc2ccc(F)cc2)CC[C@H]1N1CCC(N2CCCCC2)CC1 (racemic)", 374),
    ("O[C@@H]1Cc2ccccc2C[C@H]1N1CCC(c2ccncc2)CC1 (racemic)", 258),
    ("CCN(CCCc1ccccc1)[C@@H]1CCCC[C@H]1O (racemic)", 652),
    ("O[C@@H]1CC[C@@H](OCc2ccc(F)cc2)C[C@H]1N1CCC(c2ccncc2)CC1 (racemic)", 85.8),
    ("O[C@@H]1C[C@@H](OCc2ccc(F)cc2)CC[C@H]1N1CCC(c2ccncc2)CC1 (racemic)", 164),
    ("CCN(CCCc1ccccc1)[C@@H]1CC[C@H](OCc2ccc(F)cc2)C[C@H]1O (racemic)", 280),
    ("O[C@@H]1C[C@@H](OCc2ccc(F)cc2)CC[C@H]1N1CCC(Cc2ccccc2)CC1 (racemic)", 207),
    ("O=C(Nc1cccc2c1C[C@@H](O)[C@H](N1CCC(c3ccccc3)CC1)C2)c1ccc(F)cc1 (racemic)", 1380),
]

Next compound, Ki to be filled in.
Fill blank: measured Ki of the compound O[C@@H]1CCCC[C@H]1N1CCc2ccccc2C1 (racemic) is ____.
809

* * *

Each item that follows carries a reported pKi.
# Tgt: Vesicular acetylcholine transporter (Torpedo californica, UniProt P81721)
# Sequence (P81721 whole entry): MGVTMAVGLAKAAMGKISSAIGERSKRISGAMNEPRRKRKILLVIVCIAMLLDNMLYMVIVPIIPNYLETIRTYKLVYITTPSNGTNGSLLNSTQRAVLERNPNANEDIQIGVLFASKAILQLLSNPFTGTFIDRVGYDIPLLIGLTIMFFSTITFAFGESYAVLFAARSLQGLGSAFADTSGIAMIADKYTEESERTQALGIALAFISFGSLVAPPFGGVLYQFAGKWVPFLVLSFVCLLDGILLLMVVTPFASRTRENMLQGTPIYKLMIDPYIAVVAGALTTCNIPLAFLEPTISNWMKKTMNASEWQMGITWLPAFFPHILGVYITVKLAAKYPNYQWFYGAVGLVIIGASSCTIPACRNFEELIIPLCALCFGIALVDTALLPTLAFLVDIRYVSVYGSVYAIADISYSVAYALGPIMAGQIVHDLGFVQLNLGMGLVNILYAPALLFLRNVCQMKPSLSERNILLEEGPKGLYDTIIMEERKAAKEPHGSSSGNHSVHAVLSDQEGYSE
Please keep in mind that pKi is minus log10 of the molar concentration; only the number is needed.

Consider the worked cases shown below.
# Molecule, Readout type, Assay value
records = [
    ("O[C@@H]1CC=CC[C@H]1N1CCC(c2ccccc2)CC1 (racemic)", "pKi", 9.47),
    ("O=C(c1ccc(F)cc1)C1CCN([C@@H]2Cc3ccccc3C[C@H]2O)CC1 (racemic)", "pKi", 8.57),
]

Next molecule, pKi to be filled in.
Fill blank: measured pKi of the molecule Nc1cccc2c1C[C@@H](N1CCC(c3ccccc3)CC1)[C@H](O)C2 (racemic) is ____.
10.89

* * *

# Test name: Displacement of [3H]DTG from sigma2 receptor in Sprague-Dawley rat liver membranes incubated for 2 hrs in presence of dextrallorphan by liquid scintillation counting based competitive radioligand binding assay
# Test parameters: read-out: Ki(app)
Each item that follows carries a reported pKi.
Please keep in mind that pKi is minus log10 of the molar concentration; only the number is needed.

# Compound, pKi
measured = [
    ("O[C@@H]1CCCC[C@H]1N1CCC(c2ccccc2)(c2ccccc2)CC1 (racemic)", 5.74),
    ("O[C@@H]1CCCC[C@H]1N1CCC(O)(c2ccccc2)CC1 (racemic)", 5.70),
    ("Nc1cccc2c1C[C@@H](N1CCC(c3ccccc3)CC1)[C@H](O)C2 (racemic)", 6.32),
    ("O[C@@H]1CC[C@@H](OCCCF)C[C@H]1N1CCC(c2ccccc2)CC1 (racemic)", 7.05),
    ("O[C@@H]1Cc2ccccc2C[C@H]1N1CCC(c2ccccc2)CC1 (racemic)", 7.02),
    ("O[C@@H]1CC[C@@H](OCc2ccc(F)cc2)C[C@H]1N1CCC(O)(c2ccccc2)CC1 (racemic)", 6.87),
    ("CCN(CCCc1ccccc1)[C@@H]1C[C@H](OCc2ccc(F)cc2)CC[C@H]1O (racemic)", 6.96),
    ("O[C@@H]1Cc2ccccc2C[C@H]1N1CCC(O)(c2ccccc2)CC1 (racemic)", 6.26),
]

Next compound, pKi to be filled in.
Fill blank: measured pKi of the compound O[C@@H]1CCCC[C@H]1N1CC=C(c2ccccc2)CC1 (racemic) is ____.
6.80

* * *

# Tgt: Sigma non-opioid intracellular receptor 1 (Rattus norvegicus)
# Test name: Displacement of […] from sigma1 receptor in Sprague-Dawley rat cortical membranes incubated for 2 hrs by liquid scintillation counting based competitive radioligand binding assay
# Test parameters: read-out: Ki(app)
Readout type: pKi
Please keep in mind that pKi is minus log10 of the molar concentration; only the number is needed.

Fill blank: measured pKi of the molecule O[C@@H]1C[C@@H](OCc2ccc(F)cc2)CC[C@H]1N1CCC(c2ccccc2)(c2ccccc2)CC1 (racemic) is ____.
6.13

Same lookup for O[C@@H]1CCCC[C@H]1N1CCc2ccccc2C1 (racemic) , please.
7.27

Same lookup for O[C@@H]1CC[C@@H](OCc2ccc(F)cc2)C[C@H]1N1CCC(O)(c2ccccc2)CC1 (racemic) , please.
7.33

Same lookup for O[C@@H]1CC[C@@H](OCc2ccc(F)cc2)C[C@H]1N1CCC(N2CCCCC2)CC1 (racemic) , please.
6.26
